# assay.system: furin, P09958;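 further: purified furin at 1:10 enzyme:substrate in 50 mM HEPES pH 7.5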
# Sequence (P09958 whole entry): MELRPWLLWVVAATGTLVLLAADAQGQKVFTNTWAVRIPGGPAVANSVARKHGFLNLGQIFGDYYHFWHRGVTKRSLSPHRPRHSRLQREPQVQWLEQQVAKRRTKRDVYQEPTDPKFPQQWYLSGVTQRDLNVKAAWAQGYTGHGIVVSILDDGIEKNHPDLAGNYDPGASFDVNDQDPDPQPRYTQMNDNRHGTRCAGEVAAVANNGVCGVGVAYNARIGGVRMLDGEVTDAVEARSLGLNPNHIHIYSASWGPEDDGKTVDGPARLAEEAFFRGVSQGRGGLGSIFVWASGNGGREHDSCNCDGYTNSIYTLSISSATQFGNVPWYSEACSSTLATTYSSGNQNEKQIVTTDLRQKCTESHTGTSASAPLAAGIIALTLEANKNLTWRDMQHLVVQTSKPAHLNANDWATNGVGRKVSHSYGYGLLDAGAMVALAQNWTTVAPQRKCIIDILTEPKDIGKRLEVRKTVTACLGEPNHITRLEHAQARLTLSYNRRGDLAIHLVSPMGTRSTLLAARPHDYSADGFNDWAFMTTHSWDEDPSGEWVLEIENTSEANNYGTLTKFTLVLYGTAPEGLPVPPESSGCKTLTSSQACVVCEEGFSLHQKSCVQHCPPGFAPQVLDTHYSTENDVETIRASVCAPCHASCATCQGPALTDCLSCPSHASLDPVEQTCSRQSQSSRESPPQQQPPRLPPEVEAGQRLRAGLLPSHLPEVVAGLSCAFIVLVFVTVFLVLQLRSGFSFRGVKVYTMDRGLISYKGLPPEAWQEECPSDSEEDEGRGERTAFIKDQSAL
# method.notes: furin cleavage Z-score vs untreated control; higher = more cleavage, active = 3.5 or more, inactive = 1 or less, 8 variable residues between constant flanks
# condition.label: 15 min
This is one part of the list. How many sequences the whole screen found active is unknown.
# binarize furin cleavage Z-score: threshold 0.7 inclusive, high side met, low side not met

Examples from the recorded data:
1) CARKIRTVGNAGNASASA [FS-1726] | met
2) CAGQPGLKRSAGNASASA [FS-1203] | met

We next turn to a different sequence, shown below.
Inquiry: Quick check: does CAEVVGSTWVAGNASASA [HC122] have furin cleavage Z-score greater than or equal to 0.7?
Reply text: not met
